# credit: paper PMC8537897

Tested On: human aromatase (Homo sapiens)
Sequence (P11511 1-503): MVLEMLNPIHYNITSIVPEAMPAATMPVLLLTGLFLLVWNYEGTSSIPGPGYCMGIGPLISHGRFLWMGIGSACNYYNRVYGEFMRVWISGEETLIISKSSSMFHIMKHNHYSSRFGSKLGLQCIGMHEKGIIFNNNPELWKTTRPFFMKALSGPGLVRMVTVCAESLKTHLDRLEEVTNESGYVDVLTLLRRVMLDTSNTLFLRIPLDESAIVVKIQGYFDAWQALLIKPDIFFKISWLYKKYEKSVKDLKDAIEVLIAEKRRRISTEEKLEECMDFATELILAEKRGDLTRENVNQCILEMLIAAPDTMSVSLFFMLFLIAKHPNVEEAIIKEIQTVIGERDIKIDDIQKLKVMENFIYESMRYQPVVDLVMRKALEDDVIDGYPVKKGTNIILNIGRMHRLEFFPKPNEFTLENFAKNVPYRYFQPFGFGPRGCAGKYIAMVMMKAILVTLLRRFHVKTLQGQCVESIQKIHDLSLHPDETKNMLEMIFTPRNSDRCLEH
Measured Attribute: IC50 (nM)

O=S(=O)(Cc1ccccc1)Oc1ccc(/C=C/c2ccccc2)cc1    2210
Cc1ccc(S(=O)(=O)Oc2ccc(/C=C/c3ccccc3)cc2)cc1[N+](=O)[O-]    3170
